system: BDF1 mice, B16 melanoma ip, median survival T/C; assay: NCI In Vivo Anticancer Drug Screen. Data for tumor model B16 Melanoma (intraperitoneal) in B6D2F1 (BDF1) mice; conditions: endpoint: median survival time; dose: 1.56 mg/kg/injection; schedule: Q01DX009 (ip); vehicle: saline; higher = longer survival
Toxic doses and inconclusive results are not listed.
Readings of T/C for the listed molecules

- molecule: "FC(F)(F)c1ccc2c(c1)N(CCCN1CCN(CCC3OCCCO3)CC1)c1ccccc1S2"
  T/C: "118 % of control"

Could you now look at the following molecule, please?
Query: Provide one value: measured T/C of CCOC(C[Se][Se]CC(OCC)OCC)OCC
Reply: 99 % of control

----------
tested on: BDF1 mice, B16 melanoma ip, median survival T/C; test: NCI In Vivo Anticancer Drug Screen. Data for tumor model B16 Melanoma (intraperitoneal) in B6D2F1 (BDF1) mice; settings: endpoint: median survival time; dose: 50.0 mg/kg/injection; schedule: Q01DX009 (ip); vehicle: saline with Tween-80
Inconclusive results and toxic doses are left out. The calls were made as follows: active = survival T/C of 150% or more; inactive = T/C below 125% in these data. Peptide text beside a SMILES is read from it. * marks the point of attachment. Cbz = O=C(OCc1ccccc1)*
Please state which outcome applies, choosing from active, inactive

Some solved cases for reference:
- compound: "CSCCC(NC(=O)C(Cc1ccccc1)NC(=O)OCc1ccccc1)C(=O)O (stereo not drawn) (Cbz-Phe-Met-OH; configuration not given here)"
  target_or_system: "BDF1 mice, B16 melanoma ip, median survival T/C"
  label_class: "inactive"
- compound: "C=CC1CC[N-]CC1.C=CC1CC[N-]CC1.C=CC1CC[N-]CC1.[Cl][Cr]([Cl])[Cl]"
  target_or_system: "BDF1 mice, B16 melanoma ip, median survival T/C"
  label_class: "inactive"
- compound: "COc1ccc(NC(=O)Oc2ccccc2-c2ccccc2)cc1"
  target_or_system: "BDF1 mice, B16 melanoma ip, median survival T/C"
  label_class: "active"
- compound: "COc1ccc(NC(=O)Nc2cc(C(F)(F)F)ccc2Cl)cc1"
  target_or_system: "BDF1 mice, B16 melanoma ip, median survival T/C"
  label_class: "active"
- compound: "[Cl][Pt+2][Cl].[NH-]CC(=O)O.[NH-]CC(=O)O"
  target_or_system: "BDF1 mice, B16 melanoma ip, median survival T/C"
  label_class: "inactive"
- compound: "C[CH2][Ge]([CH2]C)[CH2]C.C[CH2][Ge]([CH2]C)[CH2]C.C[CH2][Ge]([CH2]C)[O][Ge]([CH2]C)[CH2]C"
  target_or_system: "BDF1 mice, B16 melanoma ip, median survival T/C"
  label_class: "inactive"
- compound: "CC(=O)NC(Cc1cc(I)c(OC(C)=O)c(I)c1)C(=O)O (configuration not stated)"
  target_or_system: "BDF1 mice, B16 melanoma ip, median survival T/C"
  label_class: "inactive"
- compound: "Cc1ccc(/C=N\\N=C\\c2ccc(C)cc2)cc1"
  target_or_system: "BDF1 mice, B16 melanoma ip, median survival T/C"
  label_class: "inactive"
- compound: "CC1(c2ccccc2)C(C#N)C(=O)NC(=O)C1C#N (configuration not stated)"
  target_or_system: "BDF1 mice, B16 melanoma ip, median survival T/C"
  label_class: "inactive"
- compound: "CC(CCl)C(C#N)(c1ccccc1)c1ccccc1 (configuration not stated)"
  target_or_system: "BDF1 mice, B16 melanoma ip, median survival T/C"
  label_class: "inactive"

Query: Assay outcome for NC(=O)N/N=C1\CC2C=CCC12 (configuration not stated) : what was it?
Reply: inactive

Query: Assay outcome for CCCN(C)N=Nc1ccccc1C(=O)O : what was it?
Reply: inactive

Query: Assay outcome for C=CCSC(C)CC (configuration not stated) : what was it?
Reply: inactive

Query: Assay outcome for C#CCN(C)/N=N/c1nc[nH]c1C(N)=O : what was it?
Reply: inactive

Query: Assay outcome for O=C1C(=O)c2ccccc2C(O)=C1CCCc1ccc(C2CCCCCC2)cc1 : what was it?
Reply: inactive

Query: Assay outcome for CCOC(=O)Nc1nccs1 : what was it?
Reply: inactive

Query: Assay outcome for S=C(Cc1ccccc1)N1CCN(c2ccc(Cl)cc2)CC1 : what was it?
Reply: inactive

Query: Assay outcome for COC1OC2COC(c3ccccc3)OC2C(O)C1N (configuration not stated) : what was it?
Reply: inactive

Query: Assay outcome for COc1cc(C(C)(C)C)cc(OC)c1C(O)(c1c(OC)cc(C(C)(C)C)cc1OC)c1c(OC)cc(C(C)(C)C)cc1OC : what was it?
Reply: inactive

Query: Assay outcome for N=N/C(=C\c1c(O)[nH]c2ccccc12)c1ccccc1 : what was it?
Reply: inactive

Query: Assay outcome for CN(C)CC/C=C1\c2ccccc2C(C)(C)c2ccc(Cl)cc21 : what was it?
Reply: inactive

Query: Assay outcome for Cn1ccc(=Nc2ccc(NC(=O)c3ccc(N=c4ccn(C)c5ccc([N+](=O)[O-])cc45)cc3[N+](=O)[O-])cc2)cc1 : what was it?
Reply: inactive
